Tested on: spermatozoa obtained by the swim-up method
Test: Motility of spermatozoa after incubation and swim-up selection
Format: cell-based, human
Details: Homo sapiens, Spermatozoa; samples from normospermic individuals; 0 to 1000 µM; swim-up; Fig. 5; read-out: EC50 (effect dose of 50%) on the rapid forward motility
From the text: In the experiments the following examples are based on, standard methods of in vitro fertilization have been used. With regard to the details of these methods, reference is made to the "WHO manual" (WHO laboratory manual for the examination of human semen and sperm-cervical mucus interactions, 4th edtition, Cambridge University Press 1999). In particular, the direct swim-up method can be taken from pp. 104 to 106 of this manual. […]
quantity name: EC50

Request: Could you please provide reported EC50 for O=c1cc(N2CCOCC2)oc2c(-c3ccccc3)cccc12 ? Thanks!
Response: ~1000 nM
